These entries and their values trace back to the supplement of paper PMC6757056.

B1: library; a variant is named by its letters at N, in order (parent)
chain: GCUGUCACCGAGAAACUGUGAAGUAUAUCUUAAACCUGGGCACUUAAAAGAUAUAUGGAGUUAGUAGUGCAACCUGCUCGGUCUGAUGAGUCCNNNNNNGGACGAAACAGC

variants of: B1; experiment: normalized RNA/DNA level with ligand (relative to sTRSVctl = 100) (log10 (% of sTRSVctl)); HEK293T; ligand: cyclic di-GMP (c-di-GMP-II aptamer); ligand concentration (+) RNA-Seq: 1 mM; higher = less ribozyme self-cleavage, higher mRNA level; settings: reporter: mCherry (pCS4076), ligand present: yes
This listing pairs variants with measured normalized RNA/DNA level with ligand (log10).
I'd appreciate a reply containing only the number, no unit.

GCUAGA :: 1.67
AGCAAU :: 1.87
GCAGAA :: 1.5
AGCGCC :: 1.91

Please find the next variant below.
[Q] Specify measured normalized RNA/DNA level with ligand (log10) for `AUGACU` .
[A] 1.85
